- Assay: Toxicity liver stage against HepG2, at 10uM
- Type: cell-based
- Parameters: test concentration 10 uM, cell line HepG2-A16-CD81EGFP
- Experimental Context: human, HepG2-A16-CD81EGFP cells; read-out: INHIBITION
// values below are reported cytotoxicity at 10 µM
State the answer as a number, implicitly in %.

Consider the reported cytotoxicity at 10 µM for these molecules:
{"Molecule": "Cc1ccc2c(n1)N(Cc1csc(C)n1)CCN(C1CCOC1)C2 (stereo not drawn)", "Unit Tag": "%", "cytotoxicity at 10 µM": 9.28}
{"Molecule": "Cc1nn(C)c(Cl)c1C1CCCN1C(=O)c1ccncc1 (stereo not drawn)", "Unit Tag": "%", "cytotoxicity at 10 µM": -11.2}

# next molecule below
-- ask // lookup cytotoxicity at 10 µM for O=C(Nc1cccnc1)Nc1cccc(CN2CCC(O)CC2)c1
-- reply -4.06

====

Measured cytotoxicity at 10 µM by item
- Assay: Toxicity liver stage against HepG2, at 10uM
- Type: cell-based
- Design: test concentration 10 uM, cell line HepG2-A16-CD81EGFP
- Experimental Context: human, HepG2-A16-CD81EGFP cells; read-out: INHIBITION
Field format: number, assumed %, no unit text.

Example entries begin here.
{"Molecule": "Cc1ccc(-c2cccc(N3CCC(NC4CCOCC4)CC3)c2)cc1", "cytotoxicity at 10 µM (%)": -12.3}
{"Molecule": "CN(C)C(=O)N1CCc2c(nnn2C)C1COCc1ccccc1 (stereo not drawn)", "cytotoxicity at 10 µM (%)": -8.39}
{"Molecule": "CNC(=O)[C@@H](CC(C)C)N1CCC[C@H]1C(=O)N(C)Cc1ccccc1", "cytotoxicity at 10 µM (%)": 6.14}
{"Molecule": "CC(C)n1ccc2ccc(C(=O)NC3CN4CCC3CC4)cc21 (stereo not drawn)", "cytotoxicity at 10 µM (%)": -57.4}
{"Molecule": "c1cncc(NCCNC2CCSC2)c1 (stereo not drawn)", "cytotoxicity at 10 µM (%)": -3.22}
{"Molecule": "Cc1cnc(C(=O)N2CCCC(n3cccn3)C2)cn1 (stereo not drawn)", "cytotoxicity at 10 µM (%)": -0.29}
{"Molecule": "Cc1cnn(CCNCc2ccccc2C#N)c1", "cytotoxicity at 10 µM (%)": -9.14}
{"Molecule": "Cc1cc(-c2cccnc2)nc(C2CCCN2S(C)(=O)=O)n1 (stereo not drawn)", "cytotoxicity at 10 µM (%)": 4.36}

-- ask # lookup: cytotoxicity at 10 µM of CCCS(=O)(=O)N1CCN(Cc2ccco2)CC1
-- reply 4.28

-- ask // lookup cytotoxicity at 10 µM for CS(=O)(=O)NCCN(CCCO)C1CCc2ccccc21 (stereo not drawn)
-- reply 3.09

-- ask // returns reported cytotoxicity at 10 µM for input N#Cc1c(N)nc2c(c1-c1c[nH]nc1C1CCCCC1)CNCC2
-- reply 0.787

-- ask I'd like to know its cytotoxicity at 10 µM. The molecule in question is CC(=O)c1cccc(OCCCC(=O)N(C)Cc2cccc(O)c2)c1
-- reply -4.58

-- ask Returns the measured cytotoxicity at 10 µM for the input molecule. Input: CCN(CCc1nc2cc(C)ccc2[nH]1)C(=O)[C@@H](N)COC
-- reply -2.64

====

- Assay: Toxicity liver stage against HepG2, at 10uM
- Type: cell-based
- Parameters: test concentration 10 uM, cell line HepG2-A16-CD81EGFP
- Experimental Context: human, HepG2-A16-CD81EGFP cells; read-out: INHIBITION
Reported values of cytotoxicity at 10 µM for individual entries
Supply the numeric figure in %, leaving out any unit text.

Reference set (2 entries):
{"Compound": "COc1cccc(S(=O)(=O)NC(=O)COc2c(C)cccc2C)c1", "cytotoxicity at 10 µM, %": -5.84}
{"Compound": "CCCOc1cc(F)ccc1NC(=O)NCc1noc(C)n1", "cytotoxicity at 10 µM, %": 7.83}

-- ask Look up cytotoxicity at 10 µM for this compound: CCC(=O)N1CCC(n2cc(C(C)(C)O)nn2)CC1
-- reply 3.92

-- ask Would you mind telling me what cytotoxicity at 10 µM value was observed for Cc1cc(Cc2ccc(S(=O)(=O)N3CCOCC3)cc2)c(=O)[nH]n1 ?
-- reply -13.1

-- ask Consider the compound shown here: O=C(c1ccc2c(c1)CCCC2)N1CCn2ncnc2C1 What is its recorded cytotoxicity at 10 µM?
-- reply -4.9

-- ask Item CCc1nc(Cn2cncc(Br)c2=O)no1 has what recorded cytotoxicity at 10 µM?
-- reply -11.8

-- ask Query (compound): CCc1noc(CS(=O)(=O)C/C=C/c2ccccc2)n1 ; field requested: cytotoxicity at 10 µM
-- reply -18.4

-- ask Reported cytotoxicity at 10 µM, compound COc1c(Cl)cc(Cl)cc1CN1CCC(C(N)=O)C1 (stereo not drawn) : ____
-- reply 11.9

-- ask // cytotoxicity at 10 µM lookup, key: CCN1CCN(S(=O)(=O)c2cnc(NC(C)=O)s2)CC1
-- reply 1.37

-- ask Fill blank: measured cytotoxicity at 10 µM of the compound COc1cccc(CN2CC3(CCNCC3)CCC2=O)c1OC is ____.
-- reply 6.39

-- ask Quick check: cytotoxicity at 10 µM of Cc1cccc(OCC(=O)N(Cc2ccncc2)C2CC2)c1 ?
-- reply -40.4

-- ask Which value of cytotoxicity at 10 µM has been reported for c1cncc(N2CCOCC3(CCCN(Cc4cccs4)C3)C2)c1 (stereo not drawn) in the records?
-- reply 14.8

-- ask Could you tell me which cytotoxicity at 10 µM is on file for CCc1ncc(C(=O)N2CCOCC2CC(=O)c2ccccc2)s1 (stereo not drawn) ?
-- reply 2.58

-- ask I am curious: what cytotoxicity at 10 µM value has been reported for Cn1cccc1C(=O)NCc1cnc2n1CCN(CC1CC1)C2 ?
-- reply 11.8

-- ask Would you mind telling me what cytotoxicity at 10 µM value was observed for Cc1nc(C)n(C2CCCN(C(=O)COc3ccccc3)C2)n1 (stereo not drawn) ?
-- reply -2.51

-- ask Find the recorded cytotoxicity at 10 µM belonging to CC(C)c1nn(C)c(Cl)c1CNCc1ccc2c(c1)OCCO2 and report it.
-- reply -1.64

-- ask What does the record list as cytotoxicity at 10 µM for CCCc1nnc(SCC(=O)Nc2cc(C(C)(C)C)nn2C)[nH]1 ?
-- reply 10.7

-- ask # lookup: cytotoxicity at 10 µM of COCCn1ccnc1C1CCN(c2cccc(C(=O)O)n2)CC1
-- reply -2.74

====

- Assay: Toxicity liver stage against HepG2, at 10uM
- Assay type: cell-based
- Design: test concentration 10 uM, cell line HepG2-A16-CD81EGFP
- Experimental Context: human, HepG2-A16-CD81EGFP cells; read-out: INHIBITION
A collection of molecules and their measured cytotoxicity at 10 µM
Respond numerically; units are % and should not be typed.

Solved cases below.
{"Molecule": "CCOC(=O)CC(NC(=O)c1cn(Cc2ccccc2F)nn1)C(C)C (stereo not drawn)", "cytotoxicity at 10 µM (%)": -0.99}
{"Molecule": "CC(C)(C)c1cc(=O)[nH]c(-c2ccccc2CN2CCCCCC2)n1", "cytotoxicity at 10 µM (%)": -42}

Now take the following molecule into account.
-- ask Would you mind telling me what cytotoxicity at 10 µM value was observed for Cc1ccc(CNc2ccc(C(=O)N3CCNC(=O)C3)cn2)cc1 ?
-- reply 4.64

====

- Assay: Toxicity liver stage against HepG2, at 10uM
- Type: cell-based
- Parameters: test concentration 10 uM, cell line HepG2-A16-CD81EGFP
- Experimental Context: human, HepG2-A16-CD81EGFP cells; read-out: INHIBITION
Parameter: cytotoxicity at 10 µM
Answer format reminder: number followed by unit.

{"Compound": "COCCN(C)C(C(=O)O)c1ccc2ccccc2c1 (stereo unspecified)", "Parameter": "cytotoxicity at 10 µM", "Test Result": "3.54%"}

-- ask # get_value(readout='cytotoxicity at 10 µM', item= COc1ncc(CN(C)C2CCN(C(C)C)CC2)cn1 )
-- reply 5.15%

-- ask Which cytotoxicity at 10 µM value is on record for CC(C#N)CN(C)C(=O)CCNC(=O)C(C)(C)C (stereo unspecified) ?
-- reply 0.843%

-- ask Would you kindly share the measured cytotoxicity at 10 µM for Cc1ccc(C(=O)NC2CCN(C(=O)Nc3ccccn3)CC2)s1 ?
-- reply -4.54%

-- ask Report cytotoxicity at 10 µM for Cc1c(C)c2c(c(C)c1O)CC[C@](C)(C(=O)O)O2 [(R)-TROLOX] please.
-- reply -1.69%

-- ask I have this compound here, Cc1ccc(C(=O)N2CCCC(n3cncn3)C2)o1 (stereo unspecified) , and I need its recorded cytotoxicity at 10 µM.
-- reply 4.35%

-- ask Reported cytotoxicity at 10 µM for C=C1C(C)(C)[C@@H]2CC[C@]1(C(=O)N1CCC(n3cc(CCO)nn3)CC1)C2 : what is it?
-- reply -4.28%

-- ask What does the data say about its cytotoxicity at 10 µM? Entry: Cc1cnn(CC2CCCN2Cc2nccn2CC(F)(F)F)c1 (stereo unspecified)
-- reply -8.5%

-- ask Please give the measured cytotoxicity at 10 µM for this compound: CCOc1cc(CN(C)CCCO)ccc1OC(F)F
-- reply -14.1%

-- ask Quick one: cytotoxicity at 10 µM for CCOc1ccc(CN2C(=O)CC3(CCCC3)C2=O)nc1 ?
-- reply -4.01%
